The reader will find reported growth values listed item by item below.
System: OVCAR-3 ovarian
Experiment: NCI-60 one-dose screen, 48 h (100 = growth as untreated, 0 = no growth, -100 = all killed)
Settings: 10 µM
The panel holds about 83,000 compounds, 20% with a hit somewhere; the sample as a whole holds those more often. Calls of active or inactive are those of the source. Rule for the calls: active = growth percent below 10; inactive = the rest.

molecule	growth
CCC(C#N)(CC)c1ccccc1	109% (inactive)
CO[C@H]1C[C@@H]2CC[C@@H](C)[C@@](O)(O2)C(=O)C(=O)N2CCCC[C@H]2C(=O)O[C@H]([C@H](C)C[C@@H]2CC[C@@H](O)[C@H](OC)C2)CC(=O)[C@H](C)C=C(C)[C@@H](O)[C@@H](OC)C(=O)[C@H](C)C[C@H](C)/C=C/C=C/C=C1C	55.1% (inactive)

Lookup: I am curious: what growth value has been reported for NC(CSC(c1ccccc1)(c1ccccc1)c1ccccc1)C(=O)O (stereo unspecified) ?
Found: 15.9% (inactive)

Lookup: I am curious: what growth value has been reported for CC(=O)Oc1ccc(Br)cc1C(=O)O ?
Found: 111% (inactive)

Lookup: I am curious: what growth value has been reported for O=C(O)CCC(=O)OC(C1CO1)C(OC(=O)CCC(=O)O)C1CO1 (stereo unspecified) ?
Found: 103% (inactive)

Lookup: I am curious: what growth value has been reported for O=C1c2ccccc2C(=O)N1OCc1ccccc1 ?
Found: 105% (inactive)

Lookup: I am curious: what growth value has been reported for O=C(/C(=N/O)c1ccccc1)c1ccccc1 ?
Found: 116% (inactive)

Lookup: I am curious: what growth value has been reported for CC(=O)c1ccc(C(C)(C)C)cc1 ?
Found: 103% (inactive)

====

System: IGROV1 ovarian
Experiment: NCI-60 one-dose screen, 48 h (100 = growth as untreated, 0 = no growth, -100 = all killed)
Conditions: 10 µM
This is part of a sample that, as a whole, favours compounds with a hit. Of some 83,000 tested, about 20% had one in any assay. Where a SMILES comes first, the peptide text is derived from it. Bridges are numbered along the chain shown (N, C = ends). [ ]: non-standard residue; d: D form. The star is where a group is joined. ξ: configuration not given here. ξNMePhe(4-NMe2) = CNC(Cc1ccc(N(C)C)cc1)C(=O)O; Picolinoyl(3-OH) = O=C(c1ncccc1O)*; ξPip(4-oxo) = O=C1CCNC(C(=O)O)C1; Phg = N[CH](C(=O)O)c1ccccc1; Abu = CC[CH](N)C(=O)O
The reader will find reported growth values listed item by item below.
Give the value, in units of %, as a plain number.

compound	display-unit	growth
CC1=NN(c2ccccc2)C(=O)/C1=C\N1CC(=O)NC1=S	%	106
Cc1cccc(C(=O)N(C(C)C)C(C)C)c1	%	103
CCC1NC(=O)C(NC(=O)c2ncccc2O)C(C)OC(=O)C(c2ccccc2)NC(=O)C2CC(=O)CCN2C(=O)C(Cc2ccc(N(C)C)cc2)N(C)C(=O)C2CCCN2C1=O (stereo not drawn) (tested in a mixture with another compound) ({Picolinoyl(3-OH)}-T[Abu]P[ξNMePhe(4-NMe2)][ξPip(4-oxo)][Phg]; ester 1-C; configuration not given here)	%	64
CC(=O)Cc1cc(-c2cc(CC(C)=O)[nH]n2)n[nH]1	%	104

Lookup: I am curious: what growth value has been reported for O=[N+]([O-])c1ccc(/C=C/C=C/c2ccccc2)c(Cl)c1 ?
Found: 88

Lookup: I am curious: what growth value has been reported for COc1ccc(-c2cc3c(nn2)-c2ccccc2C3=O)cc1 ?
Found: 61.6

Lookup: I am curious: what growth value has been reported for O=C(/C=C/C(=O)c1ccccc1)c1ccccc1 ?
Found: 113

Lookup: I am curious: what growth value has been reported for CCOc1ccc2[nH]c(=S)sc2c1 ?
Found: 88.5

====

Tested on: HCT-116 colon
Test: NCI-60 one-dose screen, 48 h (100 = growth as untreated, 0 = no growth, -100 = all killed)
Conditions: 10 µM
Compounds without any hit were thinned out: in the full panel of roughly 83,000, 20% have a hit.
measured-parameter: growth (%)
Give the value, in units of %, as a plain number.

Lookup: I am curious: what growth value has been reported for COc1ccc(-c2cc3c(nn2)-c2ccccc2C3=O)cc1 ?
Found: 32

Lookup: I am curious: what growth value has been reported for O=C(N/N=C\c1cc(Br)cc(Br)c1O)N/N=C/c1cc(Br)cc(Br)c1O ?
Found: 31.2

Lookup: I am curious: what growth value has been reported for CCOc1ccc(/C=C/C(=O)c2ccccc2)cc1 ?
Found: 83.7

Lookup: I am curious: what growth value has been reported for CC1(O)OC(COc2ccc(Cl)cc2)COC1O (stereo not drawn) ?
Found: 103

Lookup: I am curious: what growth value has been reported for CCOC(=O)c1ccc(NC(=S)P(=O)(c2ccccc2)c2ccccc2)cc1 ?
Found: 91.7

Lookup: I am curious: what growth value has been reported for O=C(O)CCC(NC(=O)OCc1ccccc1)C(=O)O (stereo not drawn) ?
Found: 111

Lookup: I am curious: what growth value has been reported for O=c1cc(-c2ccccc2)oc2c1ccc1ccccc12 ?
Found: 85.5

Lookup: I am curious: what growth value has been reported for O=C(O)c1cc([N+](=O)[O-])ccc1Cl ?
Found: 102

Lookup: I am curious: what growth value has been reported for CN(C)c1ccc2nc3ccc(=N)cc-3sc2c1 ?
Found: 16.7

Lookup: I am curious: what growth value has been reported for O=C1C=CC2=C3c4cc(O)c(O)cc4CC3(O)COC2=C1O (stereo not drawn) ?
Found: 99

Lookup: I am curious: what growth value has been reported for Cc1cc(C)c(CC(=O)O)c(C)c1 ?
Found: 105

Lookup: I am curious: what growth value has been reported for COc1cc(/C=N\Nc2ccccc2)ccc1OC(=O)c1ccccc1 ?
Found: 71.3

Lookup: I am curious: what growth value has been reported for O=C(Nc1cccc(NC(=O)Nc2cc(C(F)(F)F)ccc2Cl)c1)Nc1cc(C(F)(F)F)ccc1Cl ?
Found: 13.2

Lookup: I am curious: what growth value has been reported for CC1(C(=O)O)NC(C(=O)O)Cc2c1[nH]c1ccccc21 (stereo not drawn) ?
Found: 92.6

====

Test system: SR leukemia
Experiment: NCI-60 one-dose screen, 48 h (100 = growth as untreated, 0 = no growth, -100 = all killed)
Conditions: 10 µM
The panel holds about 83,000 compounds, 20% with a hit somewhere; the sample as a whole holds those more often. Active and inactive are the calls of the source. Rule for the calls: active = growth percent below 10; inactive = the rest.
measured-parameter: growth

# example entries with known answers
> print(dat)
                            molecule.smiles  measured.parameter  observed.measurement
1  CC(=O)c1ccc(N=C(C#N)C2=C(O)c3ccccc3C2=O)cc1              growth      91.1% (inactive)
2                           COC(=O)c1cccnc1              growth       104% (inactive)
3                    S=C(Nc1ccccc1)N1CCCCC1              growth       105% (inactive)
4         N=c1c(C(=O)OCc2ccccc2)ncc(CCl)n1O              growth      82.6% (inactive)
5       COCCCC/C(=N\OCCN)c1ccc(C(F)(F)F)cc1              growth      85.8% (inactive)

Lookup: I am curious: what growth value has been reported for C=CCOC(=O)C(=O)OCC=C ?
Found: 82.1% (inactive)

Lookup: I am curious: what growth value has been reported for Cc1c(O)cccc1O ?
Found: 84% (inactive)

Lookup: I am curious: what growth value has been reported for CCN1C(=O)/C(=C/C=C/N(C)c2ccccc2)SC1=S ?
Found: 73.4% (inactive)

Lookup: I am curious: what growth value has been reported for NC(=S)N/N=C/c1ccc(N)cc1 ?
Found: 98.6% (inactive)

====

The reader will find reported growth values listed item by item below.
Tested on: SW-620 colon
Assay: NCI-60 one-dose screen, 48 h (100 = growth as untreated, 0 = no growth, -100 = all killed)
Conditions: 10 µM
Description: Growth inhibition of the SW-620 human tumor cell line is measured as a screen for anti-cancer activity. Cells are grown in 96 well plates and exposed to the test compound for 48 hours. Compounds are tested at a single concentration, which is 10^-5 M for most compounds. The reported endpoint is percent growth (GI% or GIPRCNT), where numbers from 0 - 100% represent growth inhibition, and numbers from -100% - 0 represent cell death. For example, a value of 40 represents 60% growth inhibition. […]
The panel holds about 83,000 compounds, 20% with a hit somewhere; the sample as a whole holds those more often. Calls of active or inactive are those of the source. Rule for the calls: active = growth percent below 10; inactive = the rest.

# example entries with known answers
> print(dat)
                                   compound  observed.measurement
1  CC(C)COC(=O)COC(=O)OCCOCCOC(=O)OCC(=O)OCC(C)C       108% (inactive)
2  COc1cc(/C=N\Nc2ccccc2)ccc1OC(=O)c1ccccc1      69.8% (inactive)
3               NC(N)=Nc1cc2ccccc2c2ccccc12      76.6% (inactive)

Lookup: Observed growth on SW-620 colon for CC(=O)NCc1cc(C)c(C)cc1C , please.
Found: 107% (inactive)

Lookup: Observed growth on SW-620 colon for Nc1nc2c(c(-c3nc(N)nc4c3CCc3ccccc3-4)n1)CCc1ccccc1-2 , please.
Found: 101% (inactive)
